Here the recorded Relative Binding Index (RBI) is given for each entry.
- System: receptor labeled by the radioiodinated analogue of 1 (4, [125I]-YLFQPQRF-NH2); neuropeptide FF receptor
- assay remarks: Competitive radioligand binding against 4 ([125I]Y8F-amide)
- applied conditions: mixture-based positional scanning; difference from averaged radioligand displacement of whole library (0); about 80 a.u. = 10-fold change in Ki
Peptide text beside a SMILES is read from it. * marks the point of attachment. Dansyl = CN(C)c1cccc2c(S(=O)(=O)*)cccc12
recorded endpoint: Relative Binding Index (RBI) (a.u.)

>  <compound>
CSCC[C@H](NS(=O)(=O)c1cccc2c(N(C)C)cccc12)C(=O)N[C@H](C(=O)N[C@@H](CCCNC(=N)N)C(N)=O)[C@@H](C)O [Dansyl-MTR-amide] (Dansyl-Met-Thr-Arg-NH2)

>  <measured value>
−38

$$$$
>  <compound>
CN(C)c1cccc2c(S(=O)(=O)N[C@@H](CCCCN)C(=O)NCC(=O)N[C@@H](CCCNC(=N)N)C(N)=O)cccc12 [Dansyl-KGR-amide] (Dansyl-Lys-Gly-Arg-NH2)

>  <measured value>
30

$$$$
>  <compound>
CN(C)c1cccc2c(S(=O)(=O)N[C@@H](Cc3c[nH]c4ccccc34)C(=O)N[C@@H](CCC(N)=O)C(=O)N[C@@H](CCCNC(=N)N)C(N)=O)cccc12 [Dansyl-WQR-amide] (Dansyl-Trp-Gln-Arg-NH2)

>  <measured value>
22

$$$$
